- Method: Octanol/water partition coefficient, shake-flask method
- Format: physicochemical
- Condition Details: octanol/water, shake-flask, mean ± standard deviation
Mark not fulfilled for logKO/W ± SD values under -0.3, and fulfilled for everything at or above.

C[C@H](CCC(=O)O)[C@H]1CC[C@H]2[C@@H]3CC[C@@H]4C[C@H](O)CC[C@]4(C)[C@H]3C[C@H](O)[C@]12C.O=C(O)c1cn(C2CC2)c2cc(N3CCNCC3)c(F)cc2c1=O [[Cip][Dxc]] = not fulfilled
O=C(O)c1cn(C2CC2)c2cc(N3CCNCC3)c(F)cc2c1=O.O=S(=O)(NS(=O)(=O)C(F)(F)C(F)(F)F)C(F)(F)C(F)(F)F [[Cip][BETI]] = not fulfilled
O=C(O)c1cn(C2CC2)c2cc(N3CCNCC3)c(F)cc2c1=O.O=S(=O)(NS(=O)(=O)C(F)(F)F)C(F)(F)F [[Cip][NTF2]] = fulfilled
O=C(O)c1cn(C2CC2)c2cc(N3CC[NH2+]CC3)c(F)cc2c1=O.c1ccc([B-](c2ccccc2)(c2ccccc2)c2ccccc2)cc1 [[Cip][TPB]] = not fulfilled
CCCCC(CC)COC(=O)CC(C(=O)OCC(CC)CCCC)S(=O)(=O)O.O=C(O)c1cn(C2CC2)c2cc(N3CCNCC3)c(F)cc2c1=O (centres unmarked) [[Cip][Doc]] = fulfilled

====

The entries below are paired with their reported Tstart.
- Method: Thermogravimetric analysis (TGA), thermal stability
- Type: physicochemical
- Condition Details: temperature where weight loss starts, 10 °C min^−1, N2 atmosphere
Reported Property: Tstart (°C)

O=C(O)c1cn(C2CC2)c2cc(N3CCNCC3)c(F)cc2c1=O.O=S(=O)(NS(=O)(=O)C(F)(F)F)C(F)(F)F [[Cip][NTF2]] = 263.57
COc1c(N2C[C@@H]3CCCN[C@@H]3C2)c(F)cc2c(=O)c(C(=O)O)cn(C3CC3)c12.O=S(=O)(NS(=O)(=O)C(F)(F)F)C(F)(F)F [[Mox][NTF2]] = 297.72
COc1c(N2C[C@@H]3CCCN[C@@H]3C2)c(F)cc2c(=O)c(C(=O)O)cn(C3CC3)c12.O=S(=O)(NS(=O)(=O)C(F)(F)C(F)(F)F)C(F)(F)C(F)(F)F [[Mox][BETI]] = 266.98
COc1c(N2C[C@@H]3CCC[NH2+][C@@H]3C2)c(F)cc2c(=O)c(C(=O)O)cn(C3CC3)c12.c1ccc([B-](c2ccccc2)(c2ccccc2)c2ccccc2)cc1 [[Mox][TPB]] = 144.02
O=C(O)c1cn(C2CC2)c2cc(N3CC[NH2+]CC3)c(F)cc2c1=O.c1ccc([B-](c2ccccc2)(c2ccccc2)c2ccccc2)cc1 [[Cip][TPB]] = 98.94
O=C(O)c1cn(C2CC2)c2cc(N3CCNCC3)c(F)cc2c1=O.O=S(=O)(NS(=O)(=O)C(F)(F)C(F)(F)F)C(F)(F)C(F)(F)F [[Cip][BETI]] = 266.25
C[C@H](CCC(=O)O)[C@H]1CC[C@H]2[C@@H]3CC[C@@H]4C[C@H](O)CC[C@]4(C)[C@H]3C[C@H](O)[C@]12C.O=C(O)c1cn(C2CC2)c2cc(N3CCNCC3)c(F)cc2c1=O [[Cip][Dxc]] = 211.93
